Data provenance is patent US7846959B2.

# measuredOn: c-Raf (Homo sapiens, UniProt P04049)
# Sequence (P04049 whole entry): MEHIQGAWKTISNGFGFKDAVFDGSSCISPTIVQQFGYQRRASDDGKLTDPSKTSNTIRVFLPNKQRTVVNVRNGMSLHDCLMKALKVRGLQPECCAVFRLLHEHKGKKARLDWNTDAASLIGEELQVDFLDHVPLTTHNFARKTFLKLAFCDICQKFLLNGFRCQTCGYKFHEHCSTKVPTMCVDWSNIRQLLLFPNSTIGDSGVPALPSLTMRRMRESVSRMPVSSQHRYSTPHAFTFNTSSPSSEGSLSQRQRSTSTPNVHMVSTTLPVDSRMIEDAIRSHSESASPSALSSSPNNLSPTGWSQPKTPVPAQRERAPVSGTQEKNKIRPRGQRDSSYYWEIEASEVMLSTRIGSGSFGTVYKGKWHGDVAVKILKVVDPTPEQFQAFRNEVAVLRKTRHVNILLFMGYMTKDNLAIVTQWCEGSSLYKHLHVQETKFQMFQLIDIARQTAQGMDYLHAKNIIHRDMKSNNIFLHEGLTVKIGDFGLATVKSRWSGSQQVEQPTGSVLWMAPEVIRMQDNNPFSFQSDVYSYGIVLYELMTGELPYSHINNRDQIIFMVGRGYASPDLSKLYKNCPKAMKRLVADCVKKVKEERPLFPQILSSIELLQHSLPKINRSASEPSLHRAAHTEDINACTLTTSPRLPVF
# runDescription: Luciferase-coupled chemiluminescence kinase assay (ATP consumption), c-Raf
# Type: biochemical
# testConditions: read-out: cRaf-1 IC50
pIC50: −log10 of the molar value.
recordedMetric: pIC50

Use the examples below as a reference point.
INSERT INTO assay_data (molecule, recordedmetric, recordedvalue) VALUES
  ('COC(=O)Nc1nc2cc(C3(O)c4ccccc4C(=O)N3C(C)c3cc(Br)cs3)ccc2[nH]1 (stereo not shown)', 'pIC50', '> 7.00'),
  ('COC(=O)Nc1nc2cc(C3(O)c4ccccc4C(=O)N3c3cc(Br)ccc3F)ccc2[nH]1 (stereo not shown)', 'pIC50', '> 7.00'),
  ('NS(=O)(=O)c1cccc(N2C(=O)c3ccccc3C2(O)c2ccc3c(c2)NC(=O)CO3)c1 (stereo not shown)', 'pIC50', '5.00 to 6.00'),
  ('O=C1COc2ccc(C3(O)c4ccccc4C(=O)N3c3ccc(F)c(C(F)(F)F)c3)cc2N1 (stereo not shown)', 'pIC50', '≤ 5.00'),
  ('O=C1COc2ccc(C3(O)c4ccccc4C(=O)N3Cc3ccccc3Br)cc2N1 (stereo not shown)', 'pIC50', '≤ 5.00'),
  ('Cc1ccccc1N1C(=O)c2ccccc2C1(O)c1ccc2c(c1)NC(=O)CO2 (stereo not shown)', 'pIC50', '5.00 to 6.00'),
  ('CCNC(=O)Nc1nc2cc(C3(O)c4ccccc4C(=O)N3Cc3ccccc3)ccc2[nH]1 (stereo not shown)', 'pIC50', '> 7.00'),
  ('COC(=O)Nc1nc2cc(C3(O)c4ccccc4C(=O)N3C(C)c3cccc(Cl)c3C)ccc2[nH]1 (stereo not shown)', 'pIC50', '5.00 to 6.00'),
  ('CCOC(=O)Nc1nc2cc(C3(O)c4ccccc4C(=O)N3Cc3ccccc3)ccc2[nH]1 (stereo not shown)', 'pIC50', '≤ 5.00'),
  ('CCCOC(=O)Nc1nc2cc(C3(O)c4ccccc4C(=O)N3Cc3ccccc3)ccc2[nH]1 (stereo not shown)', 'pIC50', '> 7.00');

Fill in pIC50 for each of the 5 molecules listed.
1. COC(=O)Nc1nc2cc(C3(O)c4ccccc4C(=O)N3C3Cc4ccccc4C3)ccc2[nH]1 (stereo not shown)
2. COC(=O)Nc1nc2cc(C3(O)c4ccccc4C(=O)N3Cc3ccc(C)cc3)ccc2[nH]1 (stereo not shown)
3. O=C1COc2ccc(C3(O)c4ccccc4C(=O)N3c3cccc(Oc4ccccc4)c3)cc2N1 (stereo not shown)
4. COC(=O)Nc1nc2cc(C3(O)c4ccccc4C(=O)N3c3cccc(OCCN(C)C)c3)ccc2[nH]1 (stereo not shown)
5. COC(=O)Nc1nc2cc(C3(O)c4ccccc4C(=O)N3[C@H](C(=O)OC)C3CCCCC3)ccc2[nH]1 (stereo partly shown)

Reply:
1. ≤ 5.00
2. 6.00 to 7.00
3. 6.00 to 7.00
4. 6.00 to 7.00
5. 5.00 to 6.00

Ask: Looking for the measured pIC50 of O=C1COc2ccc(C3(O)c4ccccc4C(=O)N3c3cccc(-c4ccccc4)c3)cc2N1 (stereo not shown) , can you help?
Reply: ≤ 5.00

---

For each entry below, report its pIC50 value.
# measuredOn: B-Raf (Homo sapiens)
# Sequence (P15056 whole entry): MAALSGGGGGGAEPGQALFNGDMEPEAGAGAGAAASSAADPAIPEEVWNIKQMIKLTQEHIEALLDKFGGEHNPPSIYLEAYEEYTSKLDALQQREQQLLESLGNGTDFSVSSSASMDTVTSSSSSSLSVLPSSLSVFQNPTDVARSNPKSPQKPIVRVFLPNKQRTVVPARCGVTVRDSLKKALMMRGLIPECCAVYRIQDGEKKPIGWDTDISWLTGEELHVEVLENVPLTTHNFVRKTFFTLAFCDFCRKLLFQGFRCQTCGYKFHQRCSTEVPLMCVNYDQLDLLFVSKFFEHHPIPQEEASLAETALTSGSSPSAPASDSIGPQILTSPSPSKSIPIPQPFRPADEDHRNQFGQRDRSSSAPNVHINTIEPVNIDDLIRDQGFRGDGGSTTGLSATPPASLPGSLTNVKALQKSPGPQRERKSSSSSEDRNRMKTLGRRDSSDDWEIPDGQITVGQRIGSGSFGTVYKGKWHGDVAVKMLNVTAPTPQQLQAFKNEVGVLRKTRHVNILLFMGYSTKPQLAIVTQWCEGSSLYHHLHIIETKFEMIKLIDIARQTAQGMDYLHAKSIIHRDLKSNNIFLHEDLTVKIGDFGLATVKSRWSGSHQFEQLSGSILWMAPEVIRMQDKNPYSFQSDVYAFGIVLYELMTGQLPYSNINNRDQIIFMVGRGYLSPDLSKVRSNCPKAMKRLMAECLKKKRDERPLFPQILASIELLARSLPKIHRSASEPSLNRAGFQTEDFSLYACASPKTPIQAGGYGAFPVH
# runDescription: Luciferase-coupled chemiluminescence kinase assay (ATP consumption), B-Raf
# Format: biochemical
# testConditions: read-out: bRaf (inhibition indicated as IC50)
pIC50: −log10 of the molar value.

INSERT INTO assay_data (compound, recordedvalue) VALUES
  ('COC(=O)Nc1nc2cc(C3(O)c4ccccc4C(=O)N3CC3CCNC3)ccc2[nH]1 (centres unmarked)', '5.00 to 6.00'),
  ('O=C1c2c(F)ccc(F)c2C(O)(c2ccc3[nH]c(Nc4ncccn4)nc3c2)N1c1cccc(Cl)c1F (centres unmarked)', '> 7.00'),
  ('COC(=O)Nc1nc2ccc(C(=O)c3ccccc3C(=O)Nc3cc(Br)ccc3C)cc2[nH]1', '> 7.00'),
  ('O=C(Nc1nc2ccc(C3c4ccccc4C(=O)N3c3cccc(Br)c3)cc2[nH]1)OCCN1CCCCC1 (centres unmarked)', '6.00 to 7.00'),
  ('COC(=O)Nc1nc2ccc(C(=O)c3ccccc3C(=O)Nc3cc(Br)c(F)cc3F)cc2[nH]1', '> 7.00');

For each entry beneath this line, provide reported pIC50.
1. CCc1cccc(NC(=O)c2ccccc2C(=O)c2ccc3nc(NC(=O)OC)[nH]c3c2)c1
2. O=C(Nc1nc2cc(C3(O)c4ccccc4C(=O)N3c3cccc(Cl)c3F)ccc2[nH]1)C1CCC1 (centres unmarked)
3. Cc1cccc(N2C(=O)c3ccccc3C2(O)c2ccc3nc(Nc4cnccn4)[nH]c3c2)c1 (centres unmarked)

Reply:
1. > 7.00
2. > 7.00
3. > 7.00
